TARGET_OR_TEST_SYSTEM: STAT3 (Homo sapiens, UniProt P40763)
Sequence (P40763 whole entry): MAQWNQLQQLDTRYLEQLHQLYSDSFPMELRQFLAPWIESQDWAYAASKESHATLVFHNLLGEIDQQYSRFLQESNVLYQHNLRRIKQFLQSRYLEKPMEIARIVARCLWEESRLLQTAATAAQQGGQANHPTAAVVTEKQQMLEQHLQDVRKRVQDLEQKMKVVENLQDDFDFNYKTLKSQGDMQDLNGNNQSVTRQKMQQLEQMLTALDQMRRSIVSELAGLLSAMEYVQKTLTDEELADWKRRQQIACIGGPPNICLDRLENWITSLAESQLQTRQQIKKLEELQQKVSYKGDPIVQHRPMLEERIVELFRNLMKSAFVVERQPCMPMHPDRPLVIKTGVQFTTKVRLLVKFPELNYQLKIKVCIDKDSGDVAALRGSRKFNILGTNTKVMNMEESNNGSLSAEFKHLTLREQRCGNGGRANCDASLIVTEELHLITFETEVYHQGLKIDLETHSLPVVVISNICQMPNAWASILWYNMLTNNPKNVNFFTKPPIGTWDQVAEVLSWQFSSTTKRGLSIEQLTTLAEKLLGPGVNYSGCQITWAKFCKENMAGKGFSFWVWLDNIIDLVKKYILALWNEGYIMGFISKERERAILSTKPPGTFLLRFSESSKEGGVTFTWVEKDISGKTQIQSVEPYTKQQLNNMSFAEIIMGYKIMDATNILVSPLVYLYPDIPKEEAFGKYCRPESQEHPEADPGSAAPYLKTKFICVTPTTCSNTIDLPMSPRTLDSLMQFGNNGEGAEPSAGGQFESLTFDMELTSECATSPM
RUN_DESCRIPTION: Quantitation of STAT3 degradation in A549 cells by Western blot
Type: cell-based
Parameters: expressed in transfected cells; host or cells: A549
TEST_SETTINGS: read-out: A549 DC50, 24 hours, tested up to 30 μM or 10 μM
What DC50 was measured for each of the following?

[[record]]
compound = "C/C(=C\\C(=O)N[C@H]1CCc2cccc3c2N(C1=O)[C@H](C(=O)N[C@@H](CCC(N)=O)[C@@H](C)OCc1ccc(CCCCCCC(=O)N[C@H](C(=O)N2C[C@H](O)C[C@H]2C(=O)NCc2ccc(-c4scnc4C)cc2)C(C)(C)C)cc1)C3)c1ccc(C(F)(F)P(=O)(OCOC(=O)C(C)(C)C)OCOC(=O)C(C)(C)C)cc1"
data_value = "< 30 µM"

[[record]]
compound = "Cn1c(=O)n(C2CCC(=O)NC2=O)c2cccc(CCCCC(=O)N3CC[C@H]4CC[C@@H](C(=O)N[C@@H](CCC(N)=O)C(=O)NC(c5ccccc5)c5ccccc5)N4C(=O)[C@@H](NC(=O)c4cc5cc(C(=O)P(=O)(O)O)ccc5[nH]4)C3)c21 (stereo partly drawn)"
data_value = "> 30 µM"


(Q) Quick one: DC50 of C/C(=C\C(=O)N[C@H]1CCc2cccc3c2N(C1=O)[C@H](C(=O)NC(CCC(N)=O)[C@@H](C)OCc1ccc(CCCOCCOCCOCC(=O)N[C@H](C(=O)N2C[C@H](O)C[C@H]2C(=O)NCc2ccc(-c4scnc4C)cc2)C(C)(C)C)cc1)C3)c1ccc(C(F)(F)P(=O)(OCOC(=O)C(C)(C)C)OCOC(=O)C(C)(C)C)cc1 (stereo partly drawn) ?
(A) > 10 µM

###

TARGET_OR_TEST_SYSTEM: STAT3 (Homo sapiens, UniProt P40763)
RUN_DESCRIPTION: STAT3 HiBiT degradation assay in transfected A549 cells
Assay type: cell-based
Set-up: expressed in transfected cells; host or cells: A549
TEST_SETTINGS: A549, 24 h; read-out: STAT3 HiBiT A549 degradation 24 h: Average external-Abs DC50
READOUT_KIND: DC50

[[record]]
compound = "Cc1ncsc1-c1ccc([C@H](C)NC(=O)[C@@H]2C[C@@H](O)CN2C(=O)[C@@H](NC(=O)CCCCc2cccc(OC[C@H](CCC(N)=O)NC(=O)[C@@H]3Cc4cccc5c4N3C(=O)[C@@H](NC(=O)c3cc4cc(C(=O)P(=O)(O)O)ccc4[nH]3)CC5)c2Cl)C(C)(C)C)cc1 [Compound I-243]"
readout_kind = "DC50"
data_value = "< 10 nM"

[[record]]
compound = "Cc1ncsc1-c1ccc([C@H](C)NC(=O)[C@@H]2C[C@@H](O)CN2C(=O)[C@@H](NC(=O)CCCCc2cccc(NC(=O)[C@H](CCC(N)=O)NC(=O)[C@@H]3Cc4cccc5c4N3C(=O)C(CC(=O)c3cc4ccc(C(=O)P(=O)(O)O)cc4[nH]3)CC5)c2)C(C)(C)C)cc1 (some centres unmarked) [Compound I-280]"
readout_kind = "DC50"
data_value = "10 to 100 nM"

[[record]]
compound = "Cn1c(=O)n(C2CCC(=O)NC2=O)c2ccc([C@H]3CC[C@@H](CCCC(=O)N4CC[C@H]5CC[C@@H](C(=O)N[C@@H](CCC(N)=O)C(=O)NC(c6ccccc6)c6ccccc6)N5C(=O)[C@@H](NC(=O)c5cc6cc(C(=O)P(=O)(O)O)ccc6[nH]5)C4)CC3)cc21 (some centres unmarked) [Compound I-274]"
readout_kind = "DC50"
data_value = "100 to 1000 nM"

[[record]]
compound = "Cn1c(=O)n(C2CCC(=O)NC2=O)c2ccc(C[C@H]3CC[C@@H](CC(=O)N4CC[C@H]5CC[C@@H](C(=O)N[C@@H](CCC(N)=O)C(=O)NCc6ccc(S(C)(=O)=O)cc6)N5C(=O)[C@@H](NC(=O)c5cc6cc(C(=O)P(=O)(O)O)ccc6[nH]5)C4)CC3)cc21 (some centres unmarked) [Compound I-195]"
readout_kind = "DC50"
data_value = "10 to 100 nM"

[[record]]
compound = "C/C(=C\\C(=O)N[C@H]1CCc2cccc3c2N(C1=O)[C@H](C(=O)N[C@@H](CCC(N)=O)[C@@H](C)OCc1ccc(CCCCC(=O)N[C@H](C(=O)N2C[C@H](O)C[C@H]2C(=O)N[C@@H](C)c2ccc(-c4scnc4C)cc2)C(C)(C)C)cc1)C3)c1cccc(C(F)(F)P(=O)(O)O)c1 [Compound I-142]"
readout_kind = "DC50"
data_value = "> 1000 nM"

[[record]]
compound = "Cc1ncsc1-c1ccc([C@H](C)NC(=O)[C@@H]2C[C@H](O)CN2C(=O)[C@@H](NC(=O)CCCCc2ccc(CO[C@H](C)[C@H](CCC(N)=O)NC(=O)[C@@H]3Cc4cccc5c4N3C(=O)[C@@H](NC(=O)c3cc4cc(C(=O)P(=O)(O)O)ccc4[nH]3)CC5)cc2)C(C)(C)C)cc1 [Compound I-149]"
readout_kind = "DC50"
data_value = "> 1000 nM"


Could you tell me DC50 for each of these compounds? They are listed below.
1. Cc1ncsc1-c1ccc([C@H](C)NC(=O)[C@@H]2C[C@@H](O)CN2C(=O)[C@@H](NC(=O)CCCCCc2cccc(OC[C@@H](NC(=O)[C@@H]3Cc4cccc5c4N3C(=O)[C@@H](NC(=O)c3cc4cc(C(=O)P(=O)(O)O)ccc4[nH]3)CC5)C(N)=O)c2C)C(C)(C)C)cc1 [Compound I-205]
2. Cc1ncsc1-c1ccc(CNC(=O)[C@@H]2C[C@@H](O)CN2C(=O)[C@@H](NC(=O)CCCCCC#CCOC[C@H](CCC(N)=O)NC(=O)[C@@H]2Cc3cccc4c3N2C(=O)[C@@H](NC(=O)c2cc3cc(C(=O)P(=O)(O)O)ccc3[nH]2)CC4)C(C)(C)C)cc1 [Compound I-159]

(A)
10 to 100 nM
100 to 1000 nM

The reported measurements were obtained from patent US12077555B2.
